Values were extracted from the supplement of paper PMC13380429.

- Tested on: Calu-3
- TEST DESCRIPTION: cell viability relative to DMSO; higher = less toxic
- CONDITION DESCRIPTION: 72 h; 1000 nM
ENDPOINT NAME: cell viability (%)

Nc1c(Br)cc(Br)cc1CN[C@H]1CC[C@H](O)CC1 = 91.8
CCOC(=O)[C@@H](N)CCC(=O)N[C@@H](CSCc1ccccc1)C(=O)N[C@@H](C(=O)OCC)c1ccccc1 = 103
CCc1cc2cc(OC)c(OC)cc2c(Cc2ccccc2)n1 = 96
CCOc1nc2cccc(C(=O)O)c2n1Cc1ccc(-c2ccccc2-c2nnn[nH]2)cc1 = 99.7
Cc1cc(O)cc(C)c1Cl = 105
CC(=O)NO [acetohydroxamic-acid] = 92.6
CN(C)CCCn1cc(C2=C(c3c[nH]c4ccccc34)C(=O)NC2=O)c2ccccc21 = 107
O=C(N[C@H]1CN2CCC1CC2)c1ccc2c(c1)OCCO2 = 102
COCCCOc1cc(C[C@@H](C[C@H](N)[C@@H](O)C[C@H](C(=O)NCC(C)(C)C(N)=O)C(C)C)C(C)C)ccc1OC [aliskiren-hemifumarate] = 96
Cc1nnc(C(=O)NC(C)(C)c2nc(C(=O)NCc3ccc(F)cc3)c(O)c(=O)n2C)o1 = 107
OC[C@@H](O)[C@@H](O[C@@H]1O[C@H](CO)[C@H](O)[C@H](O)[C@H]1O)[C@H](O)[C@@H](O)CO [D-LACTITOL MONOHYDRATE] = 96.3
C/C(=C\c1csc(C)n1)[C@@H]1C[C@@H]2O[C@]2(C)CCC[C@H](C)[C@H](O)[C@@H](C)C(=O)C(C)(C)[C@@H](O)CC(=O)O1 = 54.7
Cc1c(N2C(=O)[C@@H]3[C@H](O)CCN3C2=O)ccc(C#N)c1Cl = 109
O=C1NCCN1CCN1CCC(c2cn(-c3ccc(F)cc3)c3ccc(Cl)cc23)CC1 = 92.2
COc1nc(C)cnc1NS(=O)(=O)c1cccnc1-c1ccc(-c2nnco2)cc1 = 104
O=C(O)CCNC(=O)c1ccccc1 = 104
O[C@H]1[C@H](O)[C@@H](O)CN2CC[C@H](O)[C@H]12 = 103

---

Let's look at some compounds and their measured cell viability.
- System: Vero E6
- TEST DESCRIPTION: cell viability relative to DMSO; higher = less toxic
- CONDITION DESCRIPTION: 72 h; 10000 nM
ENDPOINT NAME: cell viability (%)

COC(=O)N[C@H](C(=O)N[C@@H](Cc1ccccc1)[C@@H](O)CN(Cc1ccc(-c2ccccn2)cc1)NC(=O)[C@@H](NC(=O)OC)C(C)(C)C)C(C)(C)C = 112
O=C1CCC[C@@H]2[C@H]3C[C@@H](CN12)[C@@H]1CCCCN1C3 = 95.7
Cn1ncnc1[C@H]1c2n[nH]c(=O)c3cc(F)cc(c23)N[C@@H]1c1ccc(F)cc1 = 54.5
CCOc1cc(C(=O)N2CCC(N3CCN(C)CC3)CC2)ccc1Nc1ncc2c(n1)N(C1CCCC1)c1ccccc1C(=O)N2C = 8.8
O=C(O)Cn1c(C(=O)Nc2nc(-c3ccccc3Cl)cs2)cc2ccccc21 = 97.4
Clc1cccc2c1CN(C1=NCCN1)C2 = 99.2
NC(=O)OCC(O)COc1ccc(Cl)cc1 (centres undefined) [chlorphensin-carbamate] = 103
Nc1nc(=O)n([C@H]2C[C@H](O)[C@@H](CO)O2)cc1Cl = 98.7
CSC[C@H](N)C(=O)O = 105
Cc1ccccc1-n1c(Cn2ncc3c(N)ncnc32)nc2cccc(C)c2c1=O = 104
CC1(C)Oc2ccc(C#N)cc2[C@@H](OC2=CC(=O)CC2)[C@@H]1O = 94.6
CC(=O)OCC(=O)[C@H]1CC[C@H]2[C@@H]3CC[C@H]4C[C@H](O)CC[C@]4(C)[C@H]3C(=O)C[C@]12C [alfadolone-acetate] = 97.3
CCNCC(O)c1cccc(O)c1 (centres undefined) = 99.6
CC(=O)N[C@H](Cc1ccc2ccccc2c1)C(=O)N[C@H](Cc1ccc(Cl)cc1)C(=O)N[C@H](Cc1cccnc1)C(=O)N[C@@H](CO)C(=O)N[C@@H](Cc1ccc(NC(=O)[C@@H]2CC(=O)NC(=O)N2)cc1)C(=O)N[C@H](Cc1ccc(NC(N)=O)cc1)C(=O)N[C@@H](CC(C)C)C(=O)N[C@@H](CCCCNC(C)C)C(=O)N1CCC[C@H]1C(=O)N[C@H](C)C(N)=O = 101
N=C(N)NC(=N)Nc1cccc(Cl)c1 [m-chlorophenylbiguanide] = 96.9
O=C(Nc1ccc([N+](=O)[O-])cc1Cl)c1cc(Cl)ccc1O [niclosamide] = 20
c1ccc(C2CN3CCSC3=N2)cc1 (centres undefined) = 101
COc1cc(C(=O)NC2CCCNC2)cc(OC)c1OC (centres undefined) [troxipide] = 98.4
c1cc(CN2CCCNCCNCCCNCC2)ccc1CN1CCCNCCNCCCNCC1 = 100
C[C@@H](O[C@H]1OCCN(Cc2nn(P(=O)(O)O)c(=O)[nH]2)[C@H]1c1ccc(F)cc1)c1cc(C(F)(F)F)cc(C(F)(F)F)c1 [fosaprepitant-dimeglumine] = 99.7
CN1CC(=O)NC1=N = 98.7
OC[C@@H](O)[C@@H](O[C@@H]1O[C@H](CO)[C@H](O)[C@H](O)[C@H]1O)[C@H](O)[C@@H](O)CO [D-LACTITOL MONOHYDRATE] = 99.3
Nc1ccc(S(=O)(=O)Nc2nccs2)cc1 = 102
NC(=O)N/N=C/c1ccc(Oc2ccc(F)cc2)cc1 = 86.6
CC(=O)c1cnc2ccc(-c3cc(Cl)c(O)c(Cl)c3)nc2c1N[C@H]1CC[C@H](CN(C)C)CC1 = 2.6
CCCc1ncc(C[n+]2ccccc2C)c(N)n1 = 102
CC(C)CN(C[C@@H](O)[C@H](Cc1ccccc1)NC(=O)O[C@H]1CCOC1)S(=O)(=O)c1ccc(N)cc1 = 93.4
CC(=O)N[C@@H](CCC(N)=O)C(=O)O [aceglutamide] = 83.7
CCN(CC)c1ccc(/C=N/NC(=O)c2ccc(O)cc2)cc1 = 95.1
C[C@@H](N)[C@@H](O)c1ccccc1 = 97.7
CC(CC(C(N)=O)(c1ccccc1)c1ccccc1)N(C)C (centres undefined) [aminopentamide] = 104
CCOCC(O)COc1ccc(NC(=O)CC[S+](C)C)cc1 (centres undefined) = 104
O=C(NC(O)C(Cl)(Cl)Cl)NC(O)C(Cl)(Cl)Cl (centres undefined) = 103
Oc1ccc(Cl)cc1 = 99.7
